# testName: Pharmacokinetics after iv and oral administration, P‐S difference method, Bcrp(−/−) mice
# Format: in vivo
# statedConditions: male, FVB Bcrp(−/−), mouse, portal vein plasma, po, 1 mg/kg, Bcrp(−/−) mice; p.o. (ciprofloxacin 1, nitrofurantoin 2, topotecan 1, sulfasalazine 5 mg/kg); portal vein (pv) plasma; read-out: AUC 0→∞ (AUCpv)
Counter-ions that a name gives are not always drawn.
propertyMeasured: AUC(0-inf) (µM·h)
Enter your answer as a number in µM·h; do not include the unit.

Prompt: // lookup AUC(0-inf) for CC[C@@]1(O)C(=O)OCc2c1cc1n(c2=O)Cc2cc3c(CN(C)C)c(O)ccc3nc2-1 [topotecan, Topotecan HCl]
Completion: 1.51
